Just for reference, the array DNA melting data of Ke et al. (doi:10.1101/2024.01.08.574731) is where these values come from.

So I've got a bunch of sequences here, and I need their folding enthalpy values.
Test: folding enthalpy; higher = less favourable; fluorescence melt of hairpins on a sequencing array, two-state fit
Conditions: sodium 0.088 M
Give bare numbers, in kJ/mol.

Some solved cases for reference:
# Macromolecule Sequence, Quantity Measured, Recorded Number
data = [
    ("GAGGAGCGAAAGCTTCTC (((.(((....))).)))", "folding enthalpy", -139),
    ("GAGCCGCGAAAGCGACTC (((.(((....))).)))", "folding enthalpy", -110),
    ("GGTTGGGGAAACCCGATC (.(.(((....))).).)", "folding enthalpy", -90.2),
]

Provide each entry's folding enthalpy from the list below.
1. CGCGCGGAAACGCGAGCG ((((((....)))..)))
2. GATCATGCGGATGATC ((((((....))))))
3. GGTACGGGAAACCACACC (((..((....))..)))

## Output
1. -50.5
2. -143
3. -67.7

* * *

So I've got a bunch of sequences here, and I need their Tm values.
Experiment: melting temperature; fluorescence melt of hairpins on a sequencing array, two-state fit, raised by 9.35 °C to match UV melts
Conditions: sodium 0.088 M
Give bare numbers, in °C.

Some solved cases for reference:
# Macromolecule Sequence, Tm, °C
rows = [
    ("GACCCTGAAAAGGGTC ((((((....))))))", 67.5),
    ("GATCCCGACGGGATC ((((((...))))))", 68),
    ("GATGCTGGAAACGGCATC (((((.(....).)))))", 54.3),
    ("GCGTCTGGAAACGGACGC (((((.(....).)))))", 64.3),
    ("GACCCCGAAAGGGTAGTC ((((((....)))..)))", 44.4),
    ("GTACCACGAAAGTGTTAC (((.(((....))).)))", 39.2),
]

Provide each entry's Tm from the list below.
1. GACACCGGAAACGACGTC (((..((....))..)))
2. CGTGGCGGAAACGCAACG (((.(((....))).)))
3. GTTACCGAAAGGTTAAC ((((((....))).)))
4. GGCACCGAAAGGTCGGCC ((((((....)))..)))
5. GTTTTGACGAAAGTCAAC (((..(((....))))))
6. GATCAAGAACTTGATC ((((((....))))))
7. GGAATAACGAAAGTTTCC (((..(((....))))))

## Output
[29.4, 56.8, 41.9, 49.9, 34.6, 49.2, 32.5]

* * *

So I've got a bunch of sequences here, and I need their folding enthalpy values.
Test: folding enthalpy; higher = less favourable; fluorescence melt of hairpins on a sequencing array, two-state fit
Settings: sodium 0.088 M
Answers are plain numbers, in kcal/mol.

Some solved cases for reference:
# Macromolecule Sequence, folding enthalpy (kcal/mol)
rows = [
    ("GATCTATCGTAGATC ((((((...))))))", -12.9),
    ("GATCCCTGCTGGGATC ((((((....))))))", -39.5),
    ("GCCCTCACGAAAGTGGGC (((..(((....))))))", -19.4),
]

Provide each entry's folding enthalpy from the list below.
1. CGCGGAAATCTCCGCG ((((((....))))))
2. AGTAACTGAAAAGTTACT (((((((....)))))))
3. GCTGGAGGAAACTTCAGC ((((.((....)).))))

## Output
1. -40.2
2. -32.3
3. -40.8

Provide each entry's folding enthalpy from the list below.
1. GGCTTACGAAAGTAGGCC (((.(((....))).)))
2. CGCACGGAAACGTCGCG ((((((....))).)))
3. GATGTCCGAAAGGAAATC (((.(((....))).)))
4. GTTCTCCGAAAGGACAAC (((.(((....))).)))
5. GCCCCGCGAAAGCCGCGC ((.(.((....)).).))
6. GTCCTCGAAAGAGTAGAC ((((((....)))..)))

## Output
1: -43.6; 2: -35.8; 3: -24; 4: -15.6; 5: -13.7; 6: -19.8

Provide each entry's folding enthalpy from the list below.
1. GCCACTGCGAAAGCAGGC (((..(((....))))))
2. GTGCGGGGAAACCCGTAC ((.((((....)))).))
3. GTGCCTGGAAACAGGCGC (.(((((....))))).)
4. GATCAACTCATTGATC ((((((....))))))
5. GGACCCGAAAGGGTTTCC ((((((....)))..)))
6. GTCCCGGGAAACTGGGAC (((((.(....).)))))
7. GGGGGAGGAAACTCCCTC (.(((((....))))).)
8. GATCTCATCGGAGATC ((((((....))))))

## Output
[-8.9, -27.4, -20.3, -33.8, -8.05, -37.2, -19.3, -36.1]
